B1: HDV Ribozyme (parent)
chain: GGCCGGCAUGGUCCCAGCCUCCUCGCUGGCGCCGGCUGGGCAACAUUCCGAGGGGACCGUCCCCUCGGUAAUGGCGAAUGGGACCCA

Variants of: B1
test-protocol: self-cleavage, relative activity (ratio to wild type); higher = more cleavage; co-transcriptional
metric-name: self-cleavage
Output: the number by itself.

Below are worked cases with known answers.
G5C G53U : 0.291
A45G G55C : 1.04

Query: GET /values?readout=self-cleavage&item= C66G A77U
Result: 0.597

Query: Could you do the same for C3U U37G , please?
Result: 0.0639

Query: Could you do the same for A42C C63G , please?
Result: 0.208

Query: Could you do the same for G31A G82C , please?
Result: 0.146

Query: Could you do the same for U9G A83G , please?
Result: 0.525
